test system: MSCs; assay: Presto Blue proliferation assay, MSCs; assay type: cell-based; settings: Homo sapiens, 200 μM lithium; MSCs and NSCs, proliferation and migration; read-out: VPA concentration 50% effective in inducing cell proliferation and migration (mean)
reported.metric: EC50 (µM)
Please reply with the bare figure in µM and do not write the unit itself.

Complete the entry with EC50 for CCCC(CCC)C(=O)O [VPA, valproic acid]
37

====

tested on: MSCs; test: Presto Blue proliferation assay, MSCs; type: cell-based; settings: Homo sapiens, 200 μM lithium; MSCs and NSCs, proliferation and migration; read-out: VPA concentration 50% effective in inducing cell proliferation and migration (range)
reported.metric: EC50

Complete the entry with EC50 for CCCC(CCC)C(=O)O [VPA, valproic acid]
35 to 39 µM

====

system: human MSCs; assay: cells; conditions: Homo sapiens, 36 h, read-out: apparent EC50 of curcumin-induced migration, MSCs; percent closure after 36-hour run
reported.metric: EC50 (nM)
Please reply with the bare figure in nM and do not write the unit itself.

Complete the entry with EC50 for COc1cc(/C=C/C(=O)CC(=O)/C=C/c2ccc(O)c(OC)c2)ccc1O [curcumin]
250

These measurements were taken from patent US20220389377A1.
